TEST DESCRIPTION: chemical genetic growth profiling, strain panel (AID 1159580);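 also: tested at 20 µM; growth read once vehicle control cultures reached saturation at 30 °C; 1 = growth at the plate median or of vehicle wells; lower values mean less growth of the strain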
CONDITION LABEL: S. cerevisiae deletion strains, growth OD, locus YBR279W, strain paf1, stronger effect = lower value
About 2,000 (36%) of roughly 5,500 compounds were called active. Roughly 18% stayed inconclusive and do not appear here. This is one part of the list. *1 amine or outer side, *2 acyl side, *3 side chain or, on linkers, in order; H or OH if unused. Where a SMILES comes first, the peptide text is derived from it. Bridges are numbered along the chain shown (N, C = ends). [ ]: non-standard residue; d: D form. The star is where a group is joined. ξ: configuration not given here. ΔAla(E,3-NHCONH2) = NC(=O)N/C=C(/N)C(=O)O; X2 = NC1=NCCC(C(N[*:1])C(=O)[*:2])N1; ξβ3hOrn = NCCCC(N)CC(=O)*; Dap = NC[CH](N)C(=O)O
OUTCOME MEASURE: normalized growth

1) CC(=O)OCC(=O)[C@@]1(O)CCC2C3CCC4=CC(=O)CC[C@]4(C)C3[C@@H](O)C[C@@]21C (stereo not given in full) ... 1.01
2) C[C@]12CCC(=O)C=C1CCC1C2C(=O)C[C@@]2(C)C1CC[C@]2(O)C(=O)CO (stereo not given in full) ... 1
3) COc1ccc(C(=O)c2ccccc2)c(O)c1O ... 0.957
4) CCOc1ccc(C(=O)c2ccc(OC)c(O)c2O)cc1 ... 0.973
5) CC(=O)Oc1cccc2c1C(=O)c1c(OC(C)=O)cc(C(=O)O)cc1C2=O ... 0.972
6) CCOc1ccc(NC(C)=O)cc1 ... 1.01
7) COC(=O)[C@]1(C)CC[C@]2(C)CC[C@]3(C)C4=CC=C5C(=CC(=O)C(O)=C5C)[C@]4(C)CC[C@@]3(C)[C@@H]2C1 ... 0.755
8) COc1cc2cc3c4cc(OC)c(OC)cc4cc[n+]3c(C)c2cc1OC ... 1.01
9) C#C[C@]1(O)CCC2C3CCC4=Cc5oncc5C[C@]4(C)C3CC[C@@]21C (stereo not given in full) ... 0.969
10) CC1=C(O)C(=O)C=C2C1=CC=C1[C@@]2(C)CC[C@@]2(C)[C@@H]3C[C@](C)(C(=O)O)CC[C@]3(C)CC[C@]12C ... 0.527
11) COc1ccc(C(=O)c2ccc(O)cc2)c(O)c1O ... 0.974
12) CCOc1ccc(C(=O)c2cc(O)c(OC)c(OC)c2O)cc1 ... 1
13) COc1cc(/C=C/C(=O)N2CCC=CC2=O)cc(OC)c1OC ... 0.968
14) O=C(CCBr)N1CCN(C(=O)CCBr)CC1 ... 1.02
15) CC(=O)OC[C@H]1O[C@@H](Oc2cc(OC(C)=O)c3c(=O)cc(-c4ccc(OC(C)=O)cc4)oc3c2)[C@H](OC(C)=O)[C@@H](OC(C)=O)[C@@H]1OC(C)=O ... 0.997
16) CC(=O)Oc1cc2c(c(C)c1OC(C)=O)CC1OC13C2(C)CCC1(C)C2CC(C)(C(=O)O)CCC2(C)CCC13C (stereo not given) ... 1.02
17) NCCCC(N)CC(=O)NCC1NC(=O)C(CO)NC(=O)C(N)CNC(=O)C(C2CCN=C(N)N2)NC(=O)/C(=C\NC(N)=O)NC1=O (stereo not drawn) (H-[Dap]S[Dap](ξβ3hOrn)[ΔAla(E,3-NHCONH2)][X2]; lactam 1-C; configuration not given here) ... 1.01
18) CN(C)C(=N)N=C(N)N ... 1.03
19) CCOC([O-])=Nc1c[n+](N2CCOCC2)no1 ... 1.01
20) COc1cc(O)cc(OC)c1OC ... 0.992
